targetUnderTest: α-chymotrypsin (Bos taurus, UniProt P00766, DEL14-15/DEL147-148)
methodNotes: Cross-reactivity protease inhibition assay (QuantiCleave), chymotrypsin
Format: biochemical
conditionInfo: ratio Abs450nm with inhibitor / without inhibitor; 100 μM compound
Exercise: for every item that follows, state its recorded α-Chymotrypsin Activity.

Tell me α-Chymotrypsin Activity reported for O=C1C=CC(=O)c2c(O)ccc(O)c21 [cpi0131] 0.915

Tell me α-Chymotrypsin Activity reported for O=c1cc(-c2ccccc2)oc2cc(O)cc(O)c12 [cpi0124] 1.029

Tell me α-Chymotrypsin Activity reported for NCCc1ccc(S(=O)(=O)F)cc1 [AEBSF, reference compound] 0.466

Tell me α-Chymotrypsin Activity reported for CC(C)=CCC1=C(O)C(=O)c2ccccc2C1=O [cpi0133] 1.081

###

targetUnderTest: human recombinant caspase-3 (Homo sapiens, UniProt P42574)
methodNotes: In vitro high throughput caspase-3 assay
conditionInfo: calculated from IC50 according to Equation 1; read-out: Ki(app)
Checkbox rule: Ki lower than 10000 nM = criterion met; Ki not lower than 10000 nM = criterion not met.

Determine if O=C(NN=Cc1ccccc1)C12CC3CC(C1)CC(C(=O)NN=Cc1ccccc1)(C3)C2 [cpi0157.B2] shows Ki strictly lower than 10000 nM. criterion not met

Determine if CC1=CC(=O)c2ccccc2C1=O [cpi0127] shows Ki strictly lower than 10000 nM. criterion met

Determine if O=C1C=CC(=O)c2c(O)cccc21 [cpi0136.0002] shows Ki strictly lower than 10000 nM. criterion met

Determine if N#CC1=C(N)NC(SCc2ccccc2)=C(C#N)C12CCCC2 [cpi0157.F10] shows Ki strictly lower than 10000 nM. criterion not met

Determine if O=C(O)Cc1cc(O)c2c(c1O)C(=O)c1ccccc1C2=O [cpi0136.0011] shows Ki strictly lower than 10000 nM. criterion met

Determine if O=C1c2ccccc2C(=O)c2c(O)c(O)cc(O)c21 [cpi0136.0006] shows Ki strictly lower than 10000 nM. criterion met

###

targetUnderTest: human recombinant caspase-3 (Homo sapiens, UniProt P42574)
methodNotes: In vitro high throughput caspase-3 assay
conditionInfo: fixed substrate concentration of 55 μM; inhibitors 75 to 0.067 μM in duplicate
Checkbox rule: IC50 lower than 9 µM = Fulfilled; IC50 not lower than 9 µM = Not fulfilled.

Determine if `CC1=CC(=O)c2ccccc2C1=O` shows IC50 strictly lower than 9 µM. Fulfilled

Determine if `O=C(O)Cc1cc(O)c2c(c1O)C(=O)c1ccccc1C2=O` shows IC50 strictly lower than 9 µM. Fulfilled

Determine if `O=C1C(c2ccc(O)c(O)c2)=C(O)C(=O)c2c(O)cc(O)cc21` shows IC50 strictly lower than 9 µM. Not fulfilled

Determine if `O=C1C(Br)=C(Br)C(=O)c2c1ccc(Br)c2O` shows IC50 strictly lower than 9 µM. Not fulfilled

###

Exercise: for every item that follows, state its recorded Percent Activity.
targetUnderTest: human recombinant caspase-3 (Homo sapiens)
Construct: purchased Sigma
Sequence (P42574 29-175 limits assumed): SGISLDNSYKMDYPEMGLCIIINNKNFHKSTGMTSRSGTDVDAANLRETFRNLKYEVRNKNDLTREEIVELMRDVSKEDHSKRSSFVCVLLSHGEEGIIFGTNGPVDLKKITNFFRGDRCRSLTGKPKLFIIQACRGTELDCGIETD
Sequence (P42574 176-277 limits assumed): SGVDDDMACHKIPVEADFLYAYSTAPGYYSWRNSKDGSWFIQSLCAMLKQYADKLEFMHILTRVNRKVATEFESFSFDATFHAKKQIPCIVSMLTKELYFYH
methodNotes: In vitro high throughput caspase-3 assay
Type: biochemical
conditionInfo: percentage of the positive control; 20-250 μM test compound; lower = better inhibition, negative = better than control caspase inhibitor
Experimental: Purified Human recombinant caspase-3, fluorescence labeled substrate (Acetyl-Asp-Glu-Val-Asp-7-amino-4-trifluoromethyl coumarin), and known inhibitor (Z-Asp-Glu-Val-Asp-fluoromethyl ketone) can be purchased from Sigma Chemical Co. (St. Louis, Mo.). […] Each well on the 96 well plate contains the above reaction buffer plus 55 μM fluorescence labeled substrate, 0.125 μg caspase-3, and 20-250 μM test compound. […] One reading is taken the next morning as a final measurement. […]
Returns: string containing the numeric result and its unit.

Tell me Percent Activity reported for `O=C1C(Cl)=C(Cl)C(=O)c2ccccc21` 1.67%

Tell me Percent Activity reported for `CC(=O)OCCNc1cc(Br)c2noc3c2c1C(=O)c1ccccc1-3` −0.6303%

Tell me Percent Activity reported for `O=C1c2ccccc2-c2onc3c(N4CCCCC4)cc(Nc4ccccc4)c1c23` 18.82%

Tell me Percent Activity reported for `O=c1cc(-c2ccccc2)oc2cc(O)cc(O)c12` 51.49%

Tell me Percent Activity reported for `CC(C)=CCC1=C(O)C(=O)c2ccccc2C1=O` 48.29%

Tell me Percent Activity reported for CC(C)=CCC(O)C1CC(=O)c2c(O)ccc(O)c2C1=O (mixture of isomers) [cpi0138.0002] 30.37%

Tell me Percent Activity reported for `N#CC1=C(N)SC(N)=C(C#N)C1c1cccc(F)c1` 31.50%

Tell me Percent Activity reported for `O=C1c2ccccc2-c2onc3ccc(Cl)c1c23` 1.882%

Tell me Percent Activity reported for `O=C1C=CC(=O)c2ccccc21` −0.30%

Tell me Percent Activity reported for `COc1ccc2noc3c2c1C(=O)c1ccccc1-3` −3.264%

Tell me Percent Activity reported for CC(C)=CCC(O)C1CC(=O)c2c(O)ccc(O)c2C1=O (mixture of isomers) [cpi0138.0001] 22.68%

Tell me Percent Activity reported for `Cc1cc(C(=O)NN)c2cc(Br)ccc2n1` 36.41%

Tell me Percent Activity reported for `Cc1cccc(Oc2ccc3noc4c3c2C(=O)c2ccccc2-4)c1` −1.448%

Tell me Percent Activity reported for `O=C1C=CC(=NNc2ccc([N+](=O)[O-])cc2[N+](=O)[O-])c2cccc(O)c21` 36.98%

Tell me Percent Activity reported for `O=C1C=CC(=O)c2c(O)cccc21` −6.091%

Tell me Percent Activity reported for `O=C1C=CC(=NNc2cc([N+](=O)[O-])cc([N+](=O)[O-])c2)c2cccc(O)c21` −0.715%

Tell me Percent Activity reported for `Cc1ccc2[nH]c3c(cc(O)c4c(=O)c5ccccc5c(=O)c43)oc2c1` 24.8%

Tell me Percent Activity reported for `O=C(NN=Cc1ccccc1)C12CC3CC(C1)CC(C(=O)NN=Cc1ccccc1)(C3)C2` 50.76%

Tell me Percent Activity reported for `O=C1C(Cl)=C(N2CCOCC2)C(=O)c2ccccc21` −1.376%

Tell me Percent Activity reported for COc1cc(NC2OC(CO)C(O)C(O)C2O)ccc1C (centres unmarked) 33.47%

Tell me Percent Activity reported for COc1ccc2c(c1OC)C(=O)OC2CC(=O)c1ccc(O)cc1O (centres unmarked) [cpi0156.D1] 24.72%

Tell me Percent Activity reported for `O=C1C=CC(=O)c2c(O)ccc(O)c21` −1.78%

Tell me Percent Activity reported for `O=C(O)CN(CC(=O)O)Cc1cc2c(c(O)c1O)C(=O)c1ccccc1C2=O` −0.4239%

Tell me Percent Activity reported for `CNc1cc(Nc2ccccc2)c2c3c(onc13)-c1ccccc1C2=O` 6.782%

Tell me Percent Activity reported for `O=C1c2ccccc2-c2onc3ccc(Oc4c(F)c(F)c(F)c(F)c4F)c1c23` 11.08%

Tell me Percent Activity reported for `O=C1c2ccccc2-c2onc3c(N4CCN(c5ccccc5)CC4)ccc1c23` 28.63%

Tell me Percent Activity reported for `O=C(NC1CCCCC1)c1ccc2c3c(onc13)-c1ccccc1C2=O` 3.338%

Tell me Percent Activity reported for `O=C1C(c2ccc(O)c(O)c2)=C(O)C(=O)c2c(O)cc(O)cc21` 1.452%

Tell me Percent Activity reported for `N#CC1=C(N)NC(SCc2ccccc2)=C(C#N)C12CCCC2` 19.48%

Tell me Percent Activity reported for `CC(=O)N(Cc1ccccc1)C1=C(Cl)C(=O)c2ccccc2C1=O` −1.772%

Tell me Percent Activity reported for `CN(C)c1cc(Nc2ccccc2)c2c3c(onc13)-c1ccccc1C2=O` 31.97%

Tell me Percent Activity reported for `O=C(O)c1c(O)c2c(c(O)c1Cl)C(=O)c1ccccc1C2=O` −8.938%

Tell me Percent Activity reported for `O=C1c2ccccc2C(=O)c2c1cc(S(=O)(=O)O)c(O)c2O` −2.336%

Tell me Percent Activity reported for `Nc1ccc(O)c2c1C(=O)c1ccccc1C2=O` −0.8437%

Tell me Percent Activity reported for `NC(=O)NN=C1C=CC(=O)c2c(O)cccc21` −3.391%

Tell me Percent Activity reported for `O=C1c2ccccc2C(=O)c2c(O)c(O)cc(O)c21` −2.295%

Tell me Percent Activity reported for `O=C(O)Cc1cc(O)c2c(c1O)C(=O)c1ccccc1C2=O` 2.42%

Tell me Percent Activity reported for `O=C(O)CCNc1ccc(O)c2c1C(=O)c1ccccc1C2=O` 7.846%
